Test system: S. pneumoniae 2389
Test: MIC against S. pneumoniae 2389
Type: cell-based
Conditions: Table 2; S. pneumoniae 2389, Pen R; in combination with NXL-104
outcome_measure: MIC

- CC(C)(O/N=C(\C(=O)N[C@@H]1C(=O)N2C(C(=O)[O-])=C(C[n+]3ccc4c(ccn4Cc4cc(C(=N)N)co4)c3)CS[C@H]12)c1csc(N)n1)C(=O)O: 2.00 µg/mL
- CC(C)(O/N=C(\C(=O)N[C@@H]1C(=O)N2C(C(=O)[O-])=C(C[n+]3ccc4n3CCN4Cc3ccc(C(=N)N)cc3)CS[C@H]12)c1csc(N)n1)C(=O)O: 8.00 µg/mL
- CC(C)(O/N=C(\C(=O)N[C@@H]1C(=O)N2C(C(=O)[O-])=C(C[n+]3ccccc3)CS[C@H]12)c1csc(N)n1)C(=O)O [CAZ, ceftazidime, reference compound]: 16.00 µg/mL
- CC(C)(O/N=C(\C(=O)N[C@@H]1C(=O)N2C(C(=O)[O-])=C(C[n+]3ccc4c(ccn4Cc4cc(C(=N)N)cs4)c3)CS[C@H]12)c1csc(N)n1)C(=O)O: 1.00 µg/mL
